Experiment notes: DPPH free radical scavenging activity
Assay context: DPPH, 75 µg/ml
Reported endpoint: % inhibition (%)
# unit: % | format: bare number

| Smiles structure | Reported measurement |
| --- | --- |
| CCCCCCCCCCCCCCCc1nnc(S)n1N=Cc1cccc(Br)c1 | 73.76 |
| CCCCCCCCCCCCCCCc1nnc(S)n1N=Cc1ccco1 | 70.46 |
| CCCCCCCCCCCCCCCc1nnc(S)n1N=Cc1ccc(Br)cc1 | 85.79 |
| CCCCCCCCCCCCCCCc1nnc(S)n1N=Cc1ccc(O)cc1 | 67.54 |
| CCCCCCCCCCCCCCCc1nnc(S)n1N=Cc1ccc(C=O)cc1 | 70.16 |

Give the measured % inhibition for `CCCCCCCCCCCCCCCc1nnc(S)n1N=Cc1ccccc1[N+](=O)[O-]`
62.16

Give the measured % inhibition for `CCCCCCCCCCCCCCCc1nnc(S)n1N=Cc1ccc(N(C)C)cc1`
83.61
